- Test system: Tyrosine-protein kinase ABL1 (Homo sapiens), P00519 [M351T]
- CONDITION DETAILS: at 0.1 µM
MEASUREMENT TYPE: inhibition (%)
# unit: % | format: bare number

Lookup: State, for Tyrosine-protein kinase ABL1 (Homo sapiens), P00519 [M351T], measured inhibition of the compound listed here: Nc1ncnc2occ(-c3ccc(NC(=O)Nc4cc(C(F)(F)F)cc(C(F)(F)F)c4)cc3)c12
Found: 48.5

Lookup: State, for Tyrosine-protein kinase ABL1 (Homo sapiens), P00519 [M351T], measured inhibition of the compound listed here: CS(=O)(=O)CCN(CC#N)Cc1ccc(-c2ccc3ncnc(Nc4ccc(OCc5cccc(F)c5)c(Cl)c4)c3c2)o1
Found: 0.73

Lookup: State, for Tyrosine-protein kinase ABL1 (Homo sapiens), P00519 [M351T], measured inhibition of the compound listed here: COc1cc(C)c(NC(=O)CN(C)C)cc1Nc1nc(Nc2cccc(F)c2C(N)=O)c2cc[nH]c2n1
Found: 1.99

Lookup: State, for Tyrosine-protein kinase ABL1 (Homo sapiens), P00519 [M351T], measured inhibition of the compound listed here: COC(=O)Nc1nc2cc(Oc3cccc(NC(=O)Nc4cc(C(F)(F)F)ccc4F)c3)ccc2[nH]1
Found: 34.8

Lookup: State, for Tyrosine-protein kinase ABL1 (Homo sapiens), P00519 [M351T], measured inhibition of the compound listed here: CCn1c(-c2nonc2N)nc2cnc(Oc3cccc(NC(=O)c4ccc(OCCN5CCOCC5)cc4)c3)cc21
Found: 2.23

Lookup: State, for Tyrosine-protein kinase ABL1 (Homo sapiens), P00519 [M351T], measured inhibition of the compound listed here: O=C1NC(=O)C(c2ccc(Cl)cc2)=C1Nc1ccc(Cl)c(C(=O)O)c1
Found: 1.3

Lookup: State, for Tyrosine-protein kinase ABL1 (Homo sapiens), P00519 [M351T], measured inhibition of the compound listed here: O=C1Nc2ccc(C(=O)c3ccco3)cc2C1=Cc1cc(Cl)c(O)c(Cl)c1
Found: 3.29

Lookup: State, for Tyrosine-protein kinase ABL1 (Homo sapiens), P00519 [M351T], measured inhibition of the compound listed here: COc1ccc2cc(-c3c(-c4ccncc4)nc(-c4ccc([S+](C)[O-])cc4)n3C)ccc2c1 (configuration not stated)
Found: 0.25

Lookup: State, for Tyrosine-protein kinase ABL1 (Homo sapiens), P00519 [M351T], measured inhibition of the compound listed here: CS(=O)(=O)CCNCc1nc(-c2ccc3ncnc(Nc4ccc(F)c(Cl)c4)c3c2)cs1
Found: 0.97

Lookup: State, for Tyrosine-protein kinase ABL1 (Homo sapiens), P00519 [M351T], measured inhibition of the compound listed here: Cc1cc(O)cc(C)c1/C=C/c1cncc(-c2nn[nH]n2)c1
Found: 17.1
